Target chain: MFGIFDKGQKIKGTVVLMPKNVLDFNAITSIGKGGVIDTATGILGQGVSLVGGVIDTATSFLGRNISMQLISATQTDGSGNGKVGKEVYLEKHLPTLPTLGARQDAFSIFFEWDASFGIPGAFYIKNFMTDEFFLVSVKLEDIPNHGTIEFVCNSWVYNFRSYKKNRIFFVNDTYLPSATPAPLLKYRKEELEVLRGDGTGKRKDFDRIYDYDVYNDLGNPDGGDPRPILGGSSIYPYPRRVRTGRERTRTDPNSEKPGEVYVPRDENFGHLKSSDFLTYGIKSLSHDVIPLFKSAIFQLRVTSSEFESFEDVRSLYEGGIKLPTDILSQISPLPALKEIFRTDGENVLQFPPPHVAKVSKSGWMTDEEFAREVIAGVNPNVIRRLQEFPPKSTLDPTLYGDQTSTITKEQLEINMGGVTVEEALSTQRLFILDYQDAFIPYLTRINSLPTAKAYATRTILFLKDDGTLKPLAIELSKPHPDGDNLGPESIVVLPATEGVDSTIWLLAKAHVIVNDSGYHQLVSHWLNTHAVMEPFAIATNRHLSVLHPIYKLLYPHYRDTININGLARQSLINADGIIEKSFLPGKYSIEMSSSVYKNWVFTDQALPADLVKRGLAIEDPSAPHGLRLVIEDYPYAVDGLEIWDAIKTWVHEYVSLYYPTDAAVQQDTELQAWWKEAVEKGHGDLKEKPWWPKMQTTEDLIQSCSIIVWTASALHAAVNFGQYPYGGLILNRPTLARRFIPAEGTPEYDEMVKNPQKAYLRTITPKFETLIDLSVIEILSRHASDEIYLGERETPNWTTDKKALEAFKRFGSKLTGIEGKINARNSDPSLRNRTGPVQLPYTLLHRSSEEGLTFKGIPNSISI
value.kind: pIC50
Hey, just a heads up that pIC50 is the negative log base 10 of the concentration in molar.

Exercise: What value of measured pIC50 is listed for CC(Cc1ccc(O)c(O)c1)C(C)Cc1ccc(O)c(O)c1 (configuration not stated) [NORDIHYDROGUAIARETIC ACID] ?
Key: 3.40

Exercise: // query: C=CCCC/C=C\C/C=C\C/C=C\C/C=C\C/C=C\CC
Key: 5.30

---

Kindly state inhibition for each of the entries shown.
- test.system: Seed linoleate 9S-lipoxygenase (Glycine max)
- Sequence (whole entry): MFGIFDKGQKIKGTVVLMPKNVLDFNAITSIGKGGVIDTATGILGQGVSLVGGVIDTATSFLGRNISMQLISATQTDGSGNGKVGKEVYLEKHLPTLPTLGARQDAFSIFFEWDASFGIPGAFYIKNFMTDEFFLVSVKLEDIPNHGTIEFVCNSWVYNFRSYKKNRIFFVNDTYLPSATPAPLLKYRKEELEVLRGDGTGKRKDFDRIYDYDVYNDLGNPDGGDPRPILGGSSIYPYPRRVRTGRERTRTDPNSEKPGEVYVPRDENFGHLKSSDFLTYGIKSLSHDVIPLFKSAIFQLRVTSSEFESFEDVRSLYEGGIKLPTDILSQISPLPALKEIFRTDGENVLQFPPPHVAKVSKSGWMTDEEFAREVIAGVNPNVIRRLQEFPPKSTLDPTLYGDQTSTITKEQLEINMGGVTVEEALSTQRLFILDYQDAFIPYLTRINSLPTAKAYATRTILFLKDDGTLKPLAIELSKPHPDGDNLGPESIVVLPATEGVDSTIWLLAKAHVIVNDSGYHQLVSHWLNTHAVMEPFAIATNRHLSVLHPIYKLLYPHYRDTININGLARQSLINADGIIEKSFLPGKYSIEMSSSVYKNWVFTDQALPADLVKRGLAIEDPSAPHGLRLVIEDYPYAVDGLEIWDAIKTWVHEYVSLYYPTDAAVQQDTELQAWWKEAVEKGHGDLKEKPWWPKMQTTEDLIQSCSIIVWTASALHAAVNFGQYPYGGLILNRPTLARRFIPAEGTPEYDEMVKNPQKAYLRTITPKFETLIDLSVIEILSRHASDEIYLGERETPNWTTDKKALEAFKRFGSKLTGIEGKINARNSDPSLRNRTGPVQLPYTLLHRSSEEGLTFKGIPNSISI
- measurement.notes: Inhibition of soybean lipoxygenase at 100 uM
Report as: number unit

Exercise: What is its inhibition for Seed linoleate 9S-lipoxygenase (Glycine max)? Entry: C=Cc1c(C)c2cc3nc(c4c5[nH]c(cc6nc(cc1[nH]2)C(C)=C6CC)c(C)c5C(=O)C4)[C@@H](CCC(=O)OC/C=C(\C)CCC[C@H](C)CCC[C@H](C)CCCC(C)C)[C@@H]3C
Key: 29.4%

Exercise: Please give the result for C=Cc1c(C)c2cc3nc(c4c5[nH]c(cc6nc(cc1[nH]2)C(C)=C6CC)c(C)c5C(=O)C4)[C@@H](CCC(=O)O)[C@@H]3C too.
Key: 15%

Exercise: Same for C=Cc1c(C)c2cc3nc(c4c5[nH]c(cc6nc(cc1[nH]2)C(C)=C6CC)c(C)c5C(=O)[C@@H]4C(=O)OC)[C@@H](CCC(=O)OC/C=C(\C)CCC[C@H](C)CCC[C@H](C)CCCC(C)C)[C@@H]3C
Key: 37.6%

Exercise: Then what about the compound CC(Cc1ccc(O)c(O)c1)C(C)Cc1ccc(O)c(O)c1 (stereo not given) [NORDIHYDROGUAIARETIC ACID] ?
Key: 12.7%

Exercise: Here is the next compound: C=Cc1c(C)c2cc3nc(c4c5[nH]c(cc6nc(cc1[nH]2)C(C)=C6CC)c(C)c5C(=O)[C@@H]4C(=O)OC)[C@@H](CCC(=O)O)[C@@H]3C
Key: 6.5%
